// provenance: paper PMC5843811

test: Biodistribution in U87MG tumor-bearing mice; format: in vivo; conditions: female, CD-1 nude (athymic nude), mouse, spleen, iv, 5 MBq per mouse, total radioactivity, i.v. ~5 MBq (~1 nmol), 5 h p.i., mean ± SD, n=3, read-out: Biodistribution, Spleen
tissue uptake at 5 h for assorted compounds
measurementLabel: tissue uptake at 5 h (%ID/g)

{"compound": "N=C(N)NCCC[C@@H]1NC(=O)[C@H](CCCCNC(=O)CN2CCN(CC(=O)O)CCN(CC(=O)O)CCN(CC(=O)O)CC2)NC(=O)[C@@H](Cc2ccccc2)NC(=O)[C@H](CC(=O)O)NC(=O)CNC1=O [^44Sc-DOTA-RGD, metal not drawn]", "resultValue": 1.06}
{"compound": "N=C(N)NCCC[C@@H]1NC(=O)[C@H](CCCCNC(=O)CCC(C(=O)O)N2CCN(CC(=O)O)CCN(CC(=O)O)CC2)NC(=O)[C@@H](Cc2ccc(O)cc2)NC(=O)[C@H](CC(=O)O)NC(=O)CNC1=O (some centres unmarked) [^44Sc-NODAGA-RGD, metal not drawn]", "resultValue": 0.95}
